- Measured target: TGF-beta receptor type-2 (Homo sapiens, UniProt P37173); also: in the data inactive means no Kd found up to 30 µM
- Sequence (P37173 whole entry): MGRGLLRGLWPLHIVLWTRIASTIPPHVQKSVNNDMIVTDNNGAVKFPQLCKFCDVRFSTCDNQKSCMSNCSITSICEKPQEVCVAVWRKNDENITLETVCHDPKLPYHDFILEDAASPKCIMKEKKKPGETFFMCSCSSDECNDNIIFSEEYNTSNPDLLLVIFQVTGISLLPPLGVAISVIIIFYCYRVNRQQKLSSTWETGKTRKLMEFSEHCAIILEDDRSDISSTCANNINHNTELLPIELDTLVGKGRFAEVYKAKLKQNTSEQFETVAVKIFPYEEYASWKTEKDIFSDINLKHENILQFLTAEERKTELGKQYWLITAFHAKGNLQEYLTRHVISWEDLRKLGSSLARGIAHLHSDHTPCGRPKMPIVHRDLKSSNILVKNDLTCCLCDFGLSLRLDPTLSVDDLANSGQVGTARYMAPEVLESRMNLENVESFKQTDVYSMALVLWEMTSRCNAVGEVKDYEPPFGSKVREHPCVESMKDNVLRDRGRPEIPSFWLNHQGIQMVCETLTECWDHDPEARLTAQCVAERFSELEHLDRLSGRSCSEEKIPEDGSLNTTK
The source made the active and inactive calls.
Give one outcome, nothing more. List: true (active), false (inactive)

C[C@@H](c1ccc2nccn2c1)n1nnc2ncc(-c3cnn(C)c3)nc21 = false
Cc1cc(Nc2cc(N3CCN(C)CC3)nc(/C=C/c3ccccc3)n2)n[nH]1 = true
CN1N=C(N)c2cn([C@@H]3O[C@H](COP(=O)(O)O)[C@@H](O)[C@H]3O)c3ncnc1c23 [TRICIRIBINE PHOSPHATE] = false

// query Hi, sorry to bother you, what did the test record for COc1cc(OC)c(/C=C/S(=O)(=O)Cc2ccc(OC)c(NCC(=O)O)c2)c(OC)c1 ?
// result false
